# experimental-target: HIV-1 RT enzyme (wild type) (Human immunodeficiency virus type 1 group M subtype B, UniProt P04585)
# Construct: The reverse transcriptase (RT) enzyme assay has been adapted to a 96-well microtiter plate format
# method-summary: Reverse transcriptase (RT) enzymatic assay (IC50), PicoGreen fluorescence, wild type
# Assay type: biochemical
# experimental-context: RT enzymatic assay, wild type; read-out: IC50 WT
readout-name: IC50

Task: // query IC50 value for entry O=C(CNCc1nnnn1-c1cccc2ccccc12)Nc1ccccc1[N+](=O)[O-]
Result: > 0.1 µM

Task: Request: NC(=O)c1ccccc1NC(=O)CSc1nnnn1-c1cccc2ccccc12
Result: > 0.1 µM

Task: Request: O=C(CCC1=C(c2cccc3ccccc23)CCC1)Nc1ccccc1Cl
Result: > 0.1 µM

Task: Request: Cc1ccc(-n2nnnc2SCC(=O)Nc2ccc(C(N)=O)cc2[N+](=O)[O-])c(Cl)c1
Result: < 0.05 µM

Task: Request: Cc1ccc(-c2ccccc2SCC(=O)Nc2ccc(C(=O)O)cc2Cl)c(Cl)c1
Result: < 0.05 µM

These measurements were taken from patent US7642277B2.
